The measured values listed here are drawn from patent US20240217982A1.

Reported values of KRASG12D Nucleotide Exchange Assay (IC50, µM) for individual entries
TARGET UNDER TEST: KRAS G12D (Homo sapiens (Human), UniProt P01116, G12D)
Sequence (P01116-2 other isoform, or with tags, fused parts or gaps G12D): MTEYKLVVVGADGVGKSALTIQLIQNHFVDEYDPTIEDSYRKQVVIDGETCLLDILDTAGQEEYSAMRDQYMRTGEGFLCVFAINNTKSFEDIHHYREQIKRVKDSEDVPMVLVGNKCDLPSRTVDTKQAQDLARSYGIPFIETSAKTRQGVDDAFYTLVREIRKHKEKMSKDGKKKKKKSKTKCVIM
PROTOCOL TEXT: KRAS G12D Nucleotide Exchange Assay (HTRF)
Assay type: biochemical
EXPERIMENTAL SETUP: recombinant GDP-loaded KRAS G12D (20 nM), BIODIPY-labeled GDP (400 nM), recombinant SOS (10 nM), HTRF signal
OBSERVABLE: KRASG12D Nucleotide Exchange Assay (IC50, µM)

COMPOUND	ENDPOINT VALUE
C#Cc1c(F)ccc2cc(O)cc(-c3ccc4c(N5CC[C@H]6CC[C@@H](C5)N6)nc(OC[C@]56CCC[C@H]5N(C)CCC6)nc4c3F)c12 [Example 9-4]	0.02 µM
C#Cc1c(F)ccc2cc(O)cc(-c3ccc4c(N5CC[C@H]6CC[C@@H](C5)N6)nc(OC[C@@]56CCCN5C[C@H](F)C6)nc4c3F)c12 [Example 11-6]	0.02 µM
Cc1cc(N)nc(-c2c(Cl)cc3c(N4CC[C@H]5CC[C@@H](C4)N5)nc(OC[C@@]45CCCN4C[C@@H](F)C5)nc3c2F)c1C(F)(F)F [Example 5]	<0.002 µM
Cc1cc(N)nc(-c2c(Cl)cc3c(N4CC[C@H]5CC[C@@H](C4)N5)nc(OCC4(CN5CCCC(F)C5)CC4)nc3c2F)c1C(F)(F)F (some centres unmarked) [Example 10-10]	0.02 µM
Cc1cc(N)nc(-c2c(Cl)cc3c(N4CC[C@H]5CC[C@@H](C4)N5)nc(OCC4(CN5CCCC(F)C5)CC4)nc3c2F)c1C(F)(F)F (some centres unmarked) [Example 10-3]	0.01 µM
